Recorded values, source paper PMC9482650.

- system_name: LNX1_1, Q8TBB1
- Sequence (Q8TBB1 261-371): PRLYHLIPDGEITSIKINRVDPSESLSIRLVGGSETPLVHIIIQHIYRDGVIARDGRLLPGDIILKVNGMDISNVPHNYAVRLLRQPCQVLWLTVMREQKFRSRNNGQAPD
- protocol_summary: holdup assay
- Parameters: key: below the threshold = too weak to quantify, mostly under pKd 3.1 to 4
- settings: plain residues with an end cap or a label only (N-terminal biotin on a linker: ttds)
endpoint_name: pKd

Example entries and their recorded answers appear below.
Q. Please give the measured pKd for this binder: PPRQRSETQV [HPV82-E6, Q9IR59]
A. below the threshold

Q. Please give the measured pKd for this binder: SRSRRRETAL [HPV33-E6, P06427]
A. below the threshold

Q. Please give the measured pKd for this binder: GARVSKETPL [MAPK12, P53778]
A. below the threshold

Q. Please give the measured pKd for this binder: GRLLGLETNV [ARHGEF26, Q96DR7]
A. 3.81

Q. Please give the measured pKd for this binder: KLVIKTETTV [RASSF6, Q6ZTQ3]
A. below the threshold

More entries:
Q. Please give the measured pKd for this binder: DLDEEEDTHL [PODXL, O00592]
A. below the threshold

Q. Please give the measured pKd for this binder: KQVVPFSSSV [GDA, Q9Y2T3]
A. 3.84

Q. Please give the measured pKd for this binder: QRPYRRESEI [KCNJ12, Q14500]
A. below the threshold
